pKi: −log10 of the molar value.
# hOX1R (Homo sapiens, UniProt O43613): pKi values follow
# Sequence (O43613 whole entry): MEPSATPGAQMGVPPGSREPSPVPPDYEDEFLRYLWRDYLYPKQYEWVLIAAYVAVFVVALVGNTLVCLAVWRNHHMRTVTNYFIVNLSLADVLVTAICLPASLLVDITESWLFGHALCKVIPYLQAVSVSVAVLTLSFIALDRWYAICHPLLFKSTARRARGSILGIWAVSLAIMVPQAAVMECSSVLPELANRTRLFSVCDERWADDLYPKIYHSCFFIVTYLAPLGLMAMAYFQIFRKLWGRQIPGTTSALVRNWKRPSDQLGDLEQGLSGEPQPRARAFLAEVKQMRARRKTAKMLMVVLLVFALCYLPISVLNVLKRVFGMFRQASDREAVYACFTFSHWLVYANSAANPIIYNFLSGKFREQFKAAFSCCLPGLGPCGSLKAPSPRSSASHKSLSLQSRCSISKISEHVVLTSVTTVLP

molecularString: COc1ccc(CNC(=O)c2cc(-c3cc(Cl)cc(Cl)c3)cnc2-c2cccnc2)cc1OC
pKi: 7.00
//
molecularString: COc1ccc(CNC(=O)c2cc(-c3cncc(C)c3)ncc2-c2ccccc2)nc1OC
pKi: 5.55
//
molecularString: COc1ccc(CNC(=O)c2cc(-c3cncc(Cl)c3)cnc2-c2ccccn2)nc1OC
pKi: 5.82
//
molecularString: Cc1ccc(-c2ncccn2)c(C(=O)N2C[C@H](COc3ccc(F)cn3)CC[C@H]2C)c1
pKi: 8.60

* * *

# Kb per entry
targetDesc: OX1R (Rattus norvegicus)
Construct: expressed in transfected cells; host or cells: CHO-K1
Sequence (P56718 whole entry): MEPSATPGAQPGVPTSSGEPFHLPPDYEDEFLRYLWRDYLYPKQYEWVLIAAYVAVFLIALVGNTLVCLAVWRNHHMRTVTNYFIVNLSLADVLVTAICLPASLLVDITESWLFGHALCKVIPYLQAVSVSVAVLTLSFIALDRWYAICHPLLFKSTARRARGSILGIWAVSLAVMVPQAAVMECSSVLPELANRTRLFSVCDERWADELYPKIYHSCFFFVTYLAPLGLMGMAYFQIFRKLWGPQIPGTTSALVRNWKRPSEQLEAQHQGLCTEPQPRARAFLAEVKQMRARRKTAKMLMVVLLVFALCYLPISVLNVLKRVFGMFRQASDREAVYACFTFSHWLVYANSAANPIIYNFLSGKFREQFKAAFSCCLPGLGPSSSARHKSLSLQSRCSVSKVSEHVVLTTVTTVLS
assayProtocol: Inhibition of orexin-peptide-A-induced calcium mobilization in CHO cells, rat OX1R
Type: cell-based
metric: Kb (µM)

molecularString: COc1ccc(CNC(=O)c2cc(-c3cc(Cl)cc(Cl)c3)cnc2-c2cccnc2)cc1OC
metric: Kb
result: 1.05
--
molecularString: Cc1ccc(-c2ncccn2)c(C(=O)N2C[C@H](COc3ccc(F)cn3)CC[C@H]2C)c1
metric: Kb
result: 0.01
--
molecularString: COc1ccc(CNC(=O)c2cc(-c3cncc(C)c3)ncc2-c2ccccc2)nc1OC
metric: Kb
result: 58.3
--
molecularString: COc1ccc(CNC(=O)c2cc(-c3cncc(Cl)c3)cnc2-c2ccccn2)nc1OC
metric: Kb
result: 7.97
--
molecularString: COc1ccc(CNC(=O)c2cc(-c3cncc(C)c3)ncc2-c2nccs2)nc1OC
metric: Kb
result: 36.4

* * *

assayProtocol: Dog plasma free fraction
Type: in vitro ADME

molecule: COc1ccc(CNC(=O)c2cc(-c3cncc(Cl)c3)cnc2-c2ccccn2)nc1OC [MK-1064]
fraction unbound: 0.286

* * *

targetDesc: OX2R (Mus musculus)
Sequence (P58308 1-460): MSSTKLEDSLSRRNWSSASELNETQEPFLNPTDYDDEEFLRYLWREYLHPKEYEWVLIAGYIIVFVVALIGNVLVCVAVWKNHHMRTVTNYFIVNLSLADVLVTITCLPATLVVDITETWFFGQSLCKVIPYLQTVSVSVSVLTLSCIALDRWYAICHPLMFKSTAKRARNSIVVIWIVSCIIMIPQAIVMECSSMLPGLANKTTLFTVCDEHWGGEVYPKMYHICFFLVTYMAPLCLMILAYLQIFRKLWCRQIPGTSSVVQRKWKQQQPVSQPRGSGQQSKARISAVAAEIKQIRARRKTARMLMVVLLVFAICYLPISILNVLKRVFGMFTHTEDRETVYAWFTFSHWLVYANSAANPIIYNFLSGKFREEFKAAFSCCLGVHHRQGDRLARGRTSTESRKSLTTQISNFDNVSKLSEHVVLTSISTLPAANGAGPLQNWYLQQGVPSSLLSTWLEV
# Ki per entry
metric: Ki (nM)

molecule: COc1ccc(CNC(=O)c2cc(-c3cncc(Cl)c3)cnc2-c2ccccn2)nc1OC [MK-1064]
displayUnit: nM
result: 1.02

molecule: COc1ccc(CNC(=O)c2cc(-c3cncc(C)c3)ncc2-c2nccs2)nc1OC [MK-3697]
displayUnit: nM
result: 1.47

molecule: Cc1ccc(-c2ncccn2)c(C(=O)N2C[C@H](COc3ccc(F)cn3)CC[C@H]2C)c1 [MK-6096]
displayUnit: nM
result: 0.56

molecule: COc1ccc(CNC(=O)c2cc(-c3cncc(C)c3)ncc2-c2ccccc2)nc1OC [2-SORA-7]
displayUnit: nM
result: 0.83

molecule: COc1ccc(CNC(=O)c2cc(-c3cc(Cl)cc(Cl)c3)cnc2-c2cccnc2)cc1OC [2-SORA-18]
displayUnit: nM
result: 0.15

Numbers sourced from paper PMC4891657.
